system.under.test: T1, HLA-DR4 molecule (DRB1*0401) (human)
T1 construct: HLA class II heterodimer
method.summary: competitive ELISA, tracer HA 306-318
For each of the binders below, state its log10(IC50).
Hey, these are logged values: log10 of IC50, µM being the unit before logging.

Exercise: Look up and state reported log10(IC50) for PAWQPFLKDHRISTF (synthetic 15-mer) [survivin peptide 8-22]
Key: 1.66

Exercise: Answer with the recorded log10(IC50) for the binder listed here: FCFKELEGWEPDDDP (synthetic 15-mer) [survivin peptide 59-73]
Key: 1.76

Exercise: Read off the recorded log10(IC50) for KQFEELTLGEFLKLD (synthetic 15-mer) [survivin peptide 91-105]
Key: 0.20

Exercise: Let me know recorded log10(IC50) for KKQFEELTLGEFLKL (synthetic 15-mer) [survivin peptide 90-104] , thanks.
Key: -0.13

Exercise: Please give measured log10(IC50) of the following entry: HRISTFKNWPFLEGC (synthetic 15-mer) [survivin peptide 17-31]
Key: 0.96

Exercise: Provide only the value of recorded log10(IC50) for LSVKKQFEELTLGEF (synthetic 15-mer) [survivin peptide 87-101]
Key: 0.81

Exercise: Using known records, supply log10(IC50) for KNWPFLEGCACTPER (synthetic 15-mer) [survivin peptide 23-37]
Key: 0.72
